Source of measurements: ChEMBL document CHEMBL3797202

- tested on: Histone-lysine N-methyltransferase SMYD3 (Homo sapiens)
- Sequence (Q9H7B4 whole entry): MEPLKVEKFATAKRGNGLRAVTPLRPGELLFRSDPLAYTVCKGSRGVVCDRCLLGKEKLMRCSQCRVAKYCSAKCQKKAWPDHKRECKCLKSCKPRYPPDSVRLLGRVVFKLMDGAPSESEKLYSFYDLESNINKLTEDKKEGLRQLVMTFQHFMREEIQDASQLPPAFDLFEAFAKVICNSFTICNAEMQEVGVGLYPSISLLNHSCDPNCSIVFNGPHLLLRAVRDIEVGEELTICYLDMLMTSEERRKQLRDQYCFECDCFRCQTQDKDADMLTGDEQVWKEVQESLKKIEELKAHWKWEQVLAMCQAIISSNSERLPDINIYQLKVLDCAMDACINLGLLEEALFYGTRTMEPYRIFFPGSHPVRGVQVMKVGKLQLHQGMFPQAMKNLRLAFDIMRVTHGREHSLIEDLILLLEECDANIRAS
- measurement description: Inhibition of full length N-terminal His-tagged SMYD3 (1 to 428 residues) (unknown origin) expressed in Escherichia coli using N-terminal GST-tagged MEKK2 as substrate preincubated for 30 mins followed by substrate addition by scintillation proximity assay in presence of [3H]SAM
endpoint label: pIC50
Kindly note that pIC50 refers to -log10 of the concentration in mol/L and answer with the value alone.

Here are 7 compounds together with their reported answers.
smiles data | pIC50
O=C1Cc2cc(C(=O)NC3CCN(S(=O)(=O)CC4CCNCC4)CC3)ccc2N1 | 7.15
O=C1Cc2cc(C(=O)N[C@H]3C[C@H]4CC[C@@H](C3)N4S(=O)(=O)CC3CCN(CCCO)CC3)c(Cl)cc2N1 | 8.70
N[C@H]1CC[C@H](S(=O)(=O)N2[C@@H]3CC[C@H]2C[C@@H](NC(=O)c2ccc4c(c2)CC(=O)N4)C3)CC1 | 8.40
NC1CCN(S(=O)(=O)N2[C@@H]3CC[C@H]2C[C@@H](NC(=O)c2cc4c(cc2Cl)NC(=O)C4)C3)CC1 | 9.00
CN(C)C1CCN(S(=O)(=O)N2[C@@H]3CC[C@H]2C[C@@H](NC(=O)c2cc4c(cc2Cl)NC(=O)C4)C3)CC1 | 8.52
O=C1Cc2cc(C(=O)N[C@H]3C[C@H]4CC[C@@H](C3)N4S(=O)(=O)CC3CCN(CCCC(F)(F)F)CC3)c(Cl)cc2N1 | 8.52
CNC1CCN(S(=O)(=O)N2[C@@H]3CC[C@H]2C[C@@H](NC(=O)c2cc4c(cc2Cl)NC(=O)C4)C3)CC1 | 8.70

Can you share its pIC50? I mean this compound: NCCCS(=O)(=O)N1CCC(NC(=O)c2cc3c(cc2Cl)NC(=O)C3)CC1 7.10
